# Test details: pH-dependent thermodynamic solubility, miniaturized shake-flask method, UPLC-PDA
# Experimental context: acetate buffer, 24 °C, pH 4.5, aqueous buffer, thermodynamic from solid

Chemical string: CC(C)=CC[C@]12Oc3cc(O)c([C@H]4C=C(C)C[C@H](c5ccc(O)cc5O)[C@H]4C(=O)c4ccc(O)cc4O)c(O)c3C(=O)[C@@]1(O)Oc1cc(O)ccc12
Unit annotation: µg/mL
solubility thermodynamic at 24 h: 8.53

* * *

# Test details: UV-metric pKa measurement (SiriusT3)
# Format: physicochemical
# Experimental context: experimental, SiriusT3, 25 °C, mean ± S.D.; read-out: pKa 8
Measured attribute: pKa

Compound: CC(C)=CC[C@]12Oc3cc(O)c([C@H]4C=C(C)C[C@H](c5ccc(O)cc5O)[C@H]4C(=O)c4ccc(O)cc4O)c(O)c3C(=O)[C@@]1(O)Oc1cc(O)ccc12 [SGC, sanggenon C]
Recorded result: 12.1

* * *

# Test details: in vitro
# Experimental context: human

Molecule: COCCc1ccc(OCC(O)CNC(C)C)cc1 (stereo not shown) [metoprolol]
Unit annotation: ×10⁻⁶ cm/s
Papp B→A at 2 h, 500 μM: 23.3

* * *

# Test details: pH-dependent thermodynamic solubility, miniaturized shake-flask method, UPLC-PDA
# Experimental context: phosphate buffer, 24 °C, pH 7.4, aqueous buffer, thermodynamic from solid

Chemical string: CC(C)=CC[C@]12Oc3cc(O)c([C@H]4C=C(C)C[C@H](c5ccc(O)cc5O)[C@H]4C(=O)c4ccc(O)cc4O)c(O)c3C(=O)[C@@]1(O)Oc1cc(O)ccc12
Unit annotation: µg/mL
solubility thermodynamic at 24 h: 47.1

* * *

# Test details: in vitro
# Experimental context: human

Compound: COCCc1ccc(OCC(O)CNC(C)C)cc1 (stereo not shown) [metoprolol]
Papp A→B at 2 h, 500 μM: 25.4 ×10⁻⁶ cm/s

* * *

# Test details: Calu-3 cell viability, MTT assay
# Experimental context: human
Measured attribute: CC50 at 24 h

Molecule: CC(C)=CC[C@]12Oc3cc(O)c([C@H]4C=C(C)C[C@H](c5ccc(O)cc5O)[C@H]4C(=O)c4ccc(O)cc4O)c(O)c3C(=O)[C@@]1(O)Oc1cc(O)ccc12 [SGC, sanggenon C]
Recorded result: 47.8 µg/mL

* * *

# Test details: UV-metric pKa measurement (SiriusT3)
# Assay type: physicochemical
# Experimental context: experimental, SiriusT3, 25 °C, mean ± S.D.; read-out: pKa 6
Measured attribute: pKa

Molecule: CC(C)=CC[C@]12Oc3cc(O)c([C@H]4C=C(C)C[C@H](c5ccc(O)cc5O)[C@H]4C(=O)c4ccc(O)cc4O)c(O)c3C(=O)[C@@]1(O)Oc1cc(O)ccc12 [SGC, sanggenon C]
Recorded result: 9.84

* * *

# Test details: UV-metric pKa measurement (SiriusT3)
# Type: physicochemical
# Experimental context: experimental, SiriusT3, 25 °C, mean ± S.D.; read-out: pKa 4
Measured attribute: pKa

Compound: CC(C)=CC[C@]12Oc3cc(O)c([C@H]4C=C(C)C[C@H](c5ccc(O)cc5O)[C@H]4C(=O)c4ccc(O)cc4O)c(O)c3C(=O)[C@@]1(O)Oc1cc(O)ccc12 [SGC, sanggenon C]
Recorded result: 7.97

* * *

# Test details: UV-metric pKa measurement (SiriusT3)
# Format: physicochemical
# Experimental context: experimental, SiriusT3, 25 °C, mean ± S.D.; read-out: pKa 5

Compound: CC(C)=CC[C@]12Oc3cc(O)c([C@H]4C=C(C)C[C@H](c5ccc(O)cc5O)[C@H]4C(=O)c4ccc(O)cc4O)c(O)c3C(=O)[C@@]1(O)Oc1cc(O)ccc12 [SGC, sanggenon C]
pKa: 9

* * *

# Test details: UV-metric pKa measurement (SiriusT3)
# Format: physicochemical
# Experimental context: experimental, SiriusT3, 25 °C, mean ± S.D.; read-out: pKa 7
# Procedure: Experimental pKa (−log10 of the acid dissociation equilibrium constant) values of SGC and SGD were evaluated using the UV-metric pKa measurement method of the SiriusT3 automated titrator instrument and the corresponding software SiriusT3Control and SiriusT3Refine (Pion Inc., Billerica, USA). The SiriusT3 apparatus uses a deuterium lamp to determine the UV/Vis absorbance spectrum of the test solutions at each pH point. […]

Chemical string: CC(C)=CC[C@]12Oc3cc(O)c([C@H]4C=C(C)C[C@H](c5ccc(O)cc5O)[C@H]4C(=O)c4ccc(O)cc4O)c(O)c3C(=O)[C@@]1(O)Oc1cc(O)ccc12
pKa: 10.7
